The entries below are paired with their reported Dose.
Test system: P388
Assay: Optimal dose effective against P388 murine leukemia in mice
Assay type: functional, Mus musculus
Quick reminder: number only, in mg/kg, skip the unit.

Look over these answered cases.
COC1=C(C)C(=O)c2c(c(COC(N)=O)c3n2CCC3)C1=O ... 51.2
CNC(=O)OC1CCn2c3c(c(COC(N)=O)c21)C(=O)C(OC)=C(C)C3=O (centres undefined) ... 6.4
COC1=C(C)C(=O)c2c(c(COC(N)=O)c3n2CCC3O)C1=O (centres undefined) ... 6.4

Q: Give reported Dose value for COC(=O)OC1CCn2c3c(c(COC(N)=O)c21)C(=O)C(OC)=C(C)C3=O (centres undefined)
Result: 3.2

Q: Give reported Dose value for COC1=C(C)C(=O)c2c(c(COC(N)=O)c3n2CCC3OC(=O)c2cccnc2)C1=O (centres undefined)
Result: 6.4

Q: Give reported Dose value for CC(=O)OC1CCn2c3c(c(COC(N)=O)c21)C(=O)C(N1CC1)=C(C)C3=O (centres undefined)
Result: 6.4

Q: Give reported Dose value for COC1=C(C)C(=O)c2c(c(COC(N)=O)c3n2CCC3OC(=O)C(C)(C)C)C1=O (centres undefined)
Result: 51.2

Q: Give reported Dose value for COC1=C(C)C(=O)c2c(c(COC(N)=O)c3n2CCC3OC(=O)CCl)C1=O (centres undefined)
Result: 6.4

Q: Give reported Dose value for COC1=C(C)C(=O)c2c(c(COC(N)=O)c3n2CC/C3=N\O)C1=O
Result: 6.4

###

Tested on: P388
Experiment: Minimum effective dose (MED) against P388 murine leukemia in mice
Format: functional
Settings: Mus musculus, read-out: MED
Label key: Y means minimal effective dose under 2 mg/kg; N means minimal effective dose of 2 mg/kg or more.

Below are worked cases with known answers.
COC(=O)OC1CCn2c3c(c(COC(N)=O)c21)C(=O)C(OC)=C(C)C3=O (stereo not given) ... Y
CNC(=O)OC1CCn2c3c(c(COC(N)=O)c21)C(=O)C(OC)=C(C)C3=O (stereo not given) ... Y
COC1=C(C)C(=O)c2c(c(COC(N)=O)c3n2CCC3OC(=O)c2cccnc2)C1=O (stereo not given) ... N
CC1=C(N2CC2)C(=O)c2c(COC(N)=O)c3n(c2C1=O)CCC3OC(N)=O (stereo not given) ... Y
COC1=C(C)C(=O)c2c(c(COC(N)=O)c3n2CCC3OC(C)=O)C1=O (stereo not given) ... Y

Q: Just wondering, is minimal effective dose of COC1=C(C)C(=O)c2c(c(COC(N)=O)c3n2CC/C3=N\O)C1=O below 2 mg/kg?
Result: Y

###

The entries below are paired with their reported selectivity ratio.
Test: Therapeutic ratio of optimal dose to minimum effective dose(MED)
Format: ADME
Settings: mouse
Just the number, please, no unit attached.

Look over these answered cases.
COC1=C(C)C(=O)c2c(c(COC(N)=O)c3n2CCC3OC(C)=O)C1=O (stereo not drawn) ... 8
CC1=C(N2CC2)C(=O)c2c(COC(N)=O)c3n(c2C1=O)CCC3OC(N)=O (stereo not drawn) ... 64

Q: Give reported selectivity ratio value for COC1=C(C)C(=O)c2c(c(COC(N)=O)c3n2CCC3OC(=O)c2cccnc2)C1=O (stereo not drawn)
Result: 1

Q: Give reported selectivity ratio value for COC1=C(C)C(=O)c2c(c(COC(N)=O)c3n2CCC3OC(N)=O)C1=O (stereo not drawn)
Result: 16

Q: Give reported selectivity ratio value for COC1=C(C)C(=O)c2c(c(COC(N)=O)c3n2CC/C3=N\O)C1=O
Result: 4

Q: Give reported selectivity ratio value for CNC(=O)OC1CCn2c3c(c(CCl)c21)C(=O)C(OC)=C(C)C3=O (stereo not drawn)
Result: 1

Q: Give reported selectivity ratio value for COc1c(C)c(O)c2c(c1O)c(COC(N)=O)c1n2C[C@@H]2[C@H]1N2C (stereo partly drawn)
Result: 16

Q: Give reported selectivity ratio value for COC(=O)OC1CCn2c3c(c(COC(N)=O)c21)C(=O)C(OC)=C(C)C3=O (stereo not drawn)
Result: 2

Measured values drawn from ChEMBL document CHEMBL1121886 for this set.
